Target: cholesterol esterase (EC 3.1.1.13) (CEH) (Bos taurus)
Construct: purchased Sigma Company, St. Louis, Mo., U.S.A. C-1892; host or cells: bovine pancreas
Sequence (P30122 19-597): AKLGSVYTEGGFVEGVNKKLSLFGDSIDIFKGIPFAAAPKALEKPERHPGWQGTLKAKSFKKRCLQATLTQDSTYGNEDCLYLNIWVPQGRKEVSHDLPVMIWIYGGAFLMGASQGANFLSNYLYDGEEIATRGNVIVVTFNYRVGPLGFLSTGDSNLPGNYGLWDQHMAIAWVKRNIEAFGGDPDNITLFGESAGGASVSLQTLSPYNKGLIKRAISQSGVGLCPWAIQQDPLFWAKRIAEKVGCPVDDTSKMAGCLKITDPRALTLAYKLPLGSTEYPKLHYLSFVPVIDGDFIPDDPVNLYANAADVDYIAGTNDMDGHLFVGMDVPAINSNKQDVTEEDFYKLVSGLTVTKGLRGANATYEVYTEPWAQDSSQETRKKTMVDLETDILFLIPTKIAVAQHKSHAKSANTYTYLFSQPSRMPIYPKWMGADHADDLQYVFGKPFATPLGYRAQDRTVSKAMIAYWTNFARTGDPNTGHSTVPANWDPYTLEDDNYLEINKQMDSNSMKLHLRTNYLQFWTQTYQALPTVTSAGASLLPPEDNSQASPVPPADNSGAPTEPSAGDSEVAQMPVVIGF
Test: inhibition of cholesteryl ester formation by cholesterol esterase (CEH), procedure of Field
Format: biochemical, bovine
pIC50: −log10 of the molar value.
measurement label: pIC50

# compound, tested target, test result
rows = [
    ("CCCCCCNC(=O)OCCCCCCCCCCCCNC(=O)OC1CCN(C(=O)Oc2ccc(Oc3ccccc3)cc2)CC1 [Example 10]", "cholesterol esterase (EC 3.1.1.13) (CEH) (Bos taurus)", 6.21),
]

* * *

Target: cholesterol esterase (EC 3.1.1.13) (CEH) (Bos taurus)
Construct: purchased Sigma Company, St. Louis, Mo., U.S.A. C-1892; host or cells: bovine pancreas
Assay: inhibition of cholesteryl ester formation by cholesterol esterase (CEH), procedure of Field
Format: biochemical, bovine
Conditions: 37C; cholesterol and oleic acid, buffered cholesterol esterase from bovine pancreas; read-out: CEH IC50
measurement label: log10 IC50 (log10 of the value in nM)

# structure notation, tested target, log10 IC50
data = [
    ("CCCCCCCN(Cc1ccc(CC(C)(C)C)cc1)C(=O)OCCCCCCNC(=O)OC1CCN(C(=O)Oc2ccc(Oc3ccccc3)cc2)CC1", "cholesterol esterase (EC 3.1.1.13) (CEH) (Bos taurus)", 4.45),
    ("CCCCCCCCCNC(=O)OCCCNC(=O)OC1CCN(C(=O)Oc2ccc(Oc3ccccc3)cc2)CC1", "cholesterol esterase (EC 3.1.1.13) (CEH) (Bos taurus)", 2.71),
    ("CCCCCCN(CCCCCC)C(=O)OCCCCCCNC(=O)OC1CCN(C(=O)Oc2ccc(Oc3ccccc3)cc2)CC1", "cholesterol esterase (EC 3.1.1.13) (CEH) (Bos taurus)", 2.83),
    ("O=C(NCCCCCCOC(=O)N1CCCCC1)OC1CCN(C(=O)Oc2ccc(Oc3ccccc3)cc2)CC1", "cholesterol esterase (EC 3.1.1.13) (CEH) (Bos taurus)", 2.73),
    ("CCCCCCNC(=O)OCCCNC(=O)OC1CCN(C(=O)Oc2ccc(Oc3ccccc3)cc2)CC1", "cholesterol esterase (EC 3.1.1.13) (CEH) (Bos taurus)", 2.86),
    ("CCCCCCCC/C=C\\CCCCCCCCNC(=O)OCCCCCCNC(=O)OC1CCN(C(=O)Oc2ccc(Oc3ccccc3)cc2)CC1", "cholesterol esterase (EC 3.1.1.13) (CEH) (Bos taurus)", 4.19),
    ("CCCCCCNC(=O)OCCCCCCNC(=O)OC1CCN(C(=O)Oc2ccc(Oc3ccccc3)cc2)CC1", "cholesterol esterase (EC 3.1.1.13) (CEH) (Bos taurus)", 2.62),
    ("O=C(NCCCCCCOC(=O)N(Cc1ccccc1)Cc1ccccc1)OC1CCN(C(=O)Oc2ccc(Oc3ccccc3)cc2)CC1", "cholesterol esterase (EC 3.1.1.13) (CEH) (Bos taurus)", 1.90),
    ("O=C(NCCCCCCOC(=O)N1CCC2(CCCC2)CC1)OC1CCN(C(=O)Oc2ccc(Oc3ccccc3)cc2)CC1", "cholesterol esterase (EC 3.1.1.13) (CEH) (Bos taurus)", 2.49),
]
